# Tested on: 156681-154-R-J1-PDC complex spheroid viability;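 further: spheroids exposed to the agents for seven days; 100% = DMSO vehicle control viability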
# test_description: Anticancer human tumor 156681-154-R-J1-PDC patient-derived melanoma cell line growth inhibition [CLK]
# study_conditions: second compound 0.316 µM; first compound 10 µM; hits give low values
For each entry below, report its viability, T/C value.
Numeric answer only, unit % assumed.

Query: Supply measured viability, T/C of O=C(c1cc(Cc2n[nH]c(=O)c3ccccc23)ccc1F)N1CCN(C(=O)C2CC2)CC1 + CN1CCN(c2cc(C(=O)Nc3cc4cc(-c5cnn(C)c5)ccc4cn3)ccn2)CC1 in your reply.
Response: 21.2

Query: Supply measured viability, T/C of CC1COCCN1c1cc(C2(S(C)(=N)=O)CC2)nc(-c2ccnc3[nH]ccc23)n1 (stereo not drawn) + CN1CCN(c2cc(C(=O)Nc3cc4cc(-c5cnn(C)c5)ccc4cn3)ccn2)CC1 in your reply.
Response: 5.87

Query: Supply measured viability, T/C of Nc1ccn(C2OC(CO)C(O)C2(F)F)c(=O)n1 (stereo not drawn) + CNC(=O)c1ccc(Nc2nc(OC3CCCC3)c3c(-c4ccc5nc(C)oc5c4)c[nH]c3n2)c(OC)c1 in your reply.
Response: 12.5
